assay: physchem; assay type: physicochemical; conditions: thermodynamic from solid; water, 25°C; read-out: Solubility
Test Readout: solubility (µg/mL)
Just the number in µg/mL, nothing appended.

Look up solubility of `C/C(=C\c1csc(C)n1)[C@@H]1C[C@@H]2O[C@]2(C)CCC[C@H](C)[C@H](O)[C@@H](C)C(=O)C(C)(C)[C@@H](O)CC(=O)O1` and report it.
190

###

Overview of reported solubility across a group of molecules:
test: physchem; format: physicochemical; settings: 25 °C, water, thermodynamic from solid, read-out: Solubility

Worked examples follow.
- Molecule: "CC(=Cc1csc(C)n1)C1CC2OC2(C)CCCC(C)C(OC2OC(CO)C(O)C(O)C2NC(=O)CN=[N+]=[N-])C(C)C(=O)C(C)(C)C(O)CC(=O)O1 (stereo not shown)"
  solubility: "4.34 mg/mL"
- Molecule: "CC(=O)NC1C(OC2C(C)CCCC3(C)OC3CC(C(C)=Cc3csc(C)n3)OC(=O)CC(O)C(C)(C)C(=O)C2C)OC(CO)C(O)C1O (stereo not shown)"
  solubility: "8.22 mg/mL"
- Molecule: "CC(=Cc1csc(C)n1)C1CC2OC2(C)CCCC(C)C(OC2OC(CO)C(O)C(OC3OC(CO)C(O)C(O)C3O)C2O)C(C)C(=O)C(C)(C)C(O)CC(=O)O1 (stereo not shown)"
  solubility: "86.4 mg/mL"

Here is another molecule to look at.
Please give measured solubility of the following entry: CC(=Cc1csc(C)n1)C1CC2OC2(C)CCCC(C)C(OC2OC(CO)C(O)C(O)C2OC2OC(CO)C(O)C(O)C2O)C(C)C(=O)C(C)(C)C(O)CC(=O)O1 (stereo not shown)
83 mg/mL

###

tested on: hepatocyte cell line HL-7702; experiment: MTT cytotoxicity assay; type: cell-based, human; details: Homo sapiens, L02, 48 h, read-out: IC50 HL-7702, MTT, 48 h
Measured pIC50 values are reported for all entries that follow.
As a rule, pIC50 stands for the negative log10 of the concentration, concentration in M.

As a guide, the following entries are already answered.
- Compound: "CC(=Cc1csc(C)n1)C1CC2OC2(C)CCCC(C)C(OC2OC(CO)C(O)C(O)C2NC(=O)CN=[N+]=[N-])C(C)C(=O)C(C)(C)C(O)CC(=O)O1 (stereo not shown)"
  pIC50: 4.39
- Compound: "CC(=O)NC1C(OC2C(C)CCCC3(C)OC3CC(C(C)=Cc3csc(C)n3)OC(=O)CC(O)C(C)(C)C(=O)C2C)OC(CO)C(O)C1O (stereo not shown)"
  pIC50: 4.51

Using the record for CC(=Cc1csc(C)n1)C1CC2OC2(C)CCCC(C)C(OC2OC(CO)C(O)C(O)C2OC2OC(CO)C(O)C(O)C2O)C(C)C(=O)C(C)(C)C(O)CC(=O)O1 (stereo not shown) , state its measured pIC50.
4.33
